Test system: WPMY1-TUBA1B-RELA
EXPERIMENT SUMMARY: phenotypically active (imaging signature differs from DMSO and reproducible) at any of 0.3-9 uM (binary (1 = active, 0 = inactive)); higher = active
CONDITION INFO: treatment time: 24 h
Structures can show the parent of a compound that is named as a salt.
Pick from T = active, F = inactive when you respond.

N#CC(C#N)=Cc1ccc(O)c(O)c1 = F
NC(=S)N/N=C/c1coc2ccccc2c1=O = F
COC1=CC(C)=C[C@@H](C)[C@@H](O)[C@@H](C)CC(C)=CC=C[C@H](OC)[C@@H]([C@@H](C)[C@@H](O)[C@H](C)[C@@]2(O)C[C@@H](O)[C@H](C)[C@@H](C(C)C)O2)OC1=O [Bafilomycin A1] = T
COc1ccc(C[C@H]2NC[C@H](O)[C@H]2OC(C)=O)cc1 [Anisomycin] = T
CC[C@@H](CO)NC(=O)[C@@H]1C=C2c3cccc4c3c(cn4C)C[C@H]2N(C)C1 [methysergide] = F
C[C@]12COC(=O)C[C@@H]1CC[C@@H]1[C@@H]2CC[C@@]2(C)[C@H]1CC[C@]2(C)O [oxandrolone] = F
C[C@H]1C(=O)O[C@@H]2CCN3CC=C(COC(=O)[C@](C)(O)[C@]1(C)O)[C@H]23 [Monocrotaline] = F
C/C=C(/C)C(=O)O[C@H]1C(C)=C2[C@H]([C@@H]1OC(=O)CCCCCCC)[C@@](C)(OC(C)=O)C[C@H](OC(=O)CCC)[C@@]1(O)[C@H]2OC(=O)[C@@]1(C)O [Thapsigargin] = T

Q: Identify the outcome logged in this assay for the compound shown: CCn1cnc2c(Nc3cccc(Cl)c3)nc(N[C@H]3CCCC[C@H]3N)nc21
Result: T

Q: Per the records of this test, what outcome belongs to CC[C@@H]1C=CC=CC[C@H](C)[C@@H](O)[C@](C)(O)C(=O)[C@H](C)[C@@H](O)[C@H](C)C(=O)[C@H](C)[C@@H](O)[C@H](C)C=CC(=O)O[C@H]2[C@@H](C)[C@@H](CC1)O[C@@]1(CC[C@@H](C)[C@@H](C[C@H](C)O)O1)[C@@H]2C [Oligomycin A] ?
Result: F

Q: How was c1cncc(C2CC3CCN2CC3)c1 (stereo not drawn) [RJR 2429 dihydrochloride] classified in this test?
Result: F

Q: Each compound tested received a call. Report the one for c1ccc([C@@H]2C[C@H]2NC2CCNCC2)cc1 [GSK LSD 1 dihydrochloride] .
Result: F

Q: Record lookup: outcome of this test for C/C(O)=C(/C#N)C(=O)Nc1cc(Br)ccc1Br ?
Result: F

* * *

Test system: A549-GM130-SQSTM1
EXPERIMENT SUMMARY: lowest phenotypically active concentration; higher = less potent
CONDITION INFO: treatment time: 24 h
Please go through the items and note down their lowest phenotypically active concentration.
Give bare numbers, in µM.

CCn1cnc2c(Nc3cccc(Cl)c3)nc(N[C@H]3CCCC[C@H]3N)nc21 = 1
O=c1[nH]c2ccccc2n1C1CCN(CCCC(c2ccc(F)cc2)c2ccc(F)cc2)CC1 [pimozide] = 9

Q: // returns reported lowest phenotypically active concentration for input CC[C@]12C=CCN3CC[C@]4(C(=C(C(=O)OC)C1)Nc1ccccc14)[C@@H]32 [Tabersonine dichlorhydrate]
Result: 9

Cited source: the supplement of paper PMC7411054
